B1: ATGL (PNPLA2, patatin-like phospholipase domain-containing protein 2), human, full length / CGI-58 (ABHD5, 1-acylglycerol-3-phosphate O-acyltransferase ABHD5), human (parent)
chain 1: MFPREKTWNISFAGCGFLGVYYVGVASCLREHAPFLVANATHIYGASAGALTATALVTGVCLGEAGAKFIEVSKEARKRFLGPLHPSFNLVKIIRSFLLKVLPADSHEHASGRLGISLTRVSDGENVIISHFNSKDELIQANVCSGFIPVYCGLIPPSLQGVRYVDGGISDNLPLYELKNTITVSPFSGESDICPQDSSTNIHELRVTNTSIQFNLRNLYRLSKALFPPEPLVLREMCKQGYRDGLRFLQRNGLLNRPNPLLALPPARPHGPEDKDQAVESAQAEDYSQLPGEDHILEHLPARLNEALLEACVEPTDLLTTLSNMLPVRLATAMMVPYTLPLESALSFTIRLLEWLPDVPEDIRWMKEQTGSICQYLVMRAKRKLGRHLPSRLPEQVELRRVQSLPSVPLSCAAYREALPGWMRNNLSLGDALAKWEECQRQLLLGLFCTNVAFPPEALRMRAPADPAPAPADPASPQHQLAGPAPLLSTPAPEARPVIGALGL
chain 2: MAAEEEEVDSADTGERSGWLTGWLPTWCPTSISHLKEAEEKMLKCVPCTYKKEPVRISNGNKIWTLKFSHNISNKTPLVLLHGFGGGLGLWALNFGDLCTNRPVYAFDLLGFGRSSRPRFDSDAEEVENQFVESIEEWRCALGLDKMILLGHNLGGFLAAAYSLKYPSRVNHLILVEPWGFPERPDLADQDRPIPVWIRALGAALTPFNPLAGLRIAGPFGLSLVQRLRPDFKRKYSSMFEDDTVTEYIYHCNVQTPSGETAFKNMTIPYGWAKRPMLQRIGKMHPDIPVSVIFGARSCIDGNSGTSIQSLRPHSYVKTIAILGAGHYVYADQPEEFNQKVKEICDTVD

# Variants of: B1
# PROCEDURE TEXT: LUMIER: Protein A-ATGL variant and firefly luciferase-partner co-expressed in HEK293T, lysates immunoprecipitated on IgG-coated plates, co-precipitated partner measured as luciferase luminescence
# STUDY CONDITIONS: with CGI-58 (ABHD5, 1-acylglycerol-3-phosphate O-acyltransferase ABHD5), transient co-transfection, IgG-coated LUMITRAC plates, 2 h at 4 °C, three PBS washes, Bright-Glo luciferase reagent, triplicates per assay, two …, parent: 0.45, not graded, scale: log2 fold change of co-immunoprecipitated luminescence relative to wild-type ATGL within each experiment
Label 1.0 when screen value is strictly below -0.2; otherwise label 0.0.

INSERT INTO results (sequence_variant, assigned_class) VALUES
  ('chain 1 R351L', 1.0),
  ('chain 1 R113K', 0.0),
  ('chain 1 S87A', 0.0),
  ('chain 1 Q140A', 0.0),
  ('chain 1 H109E', 0.0),
  ('chain 1 F35E', 0.0),
  ('chain 1 R95L', 1.0),
  ('chain 1 S87E', 1.0);

Below -0.2 on screen value? Entry chain 1 A104E
0.0

Bench note: check whether chain 1 P156K shows screen value below -0.2
1.0

Is the reported screen value for chain 1 L62A strictly below -0.2?
1.0

Does the reported screen value of the following variant sit strictly below -0.2? chain 1 I70K
1.0

Please indicate whether the reported screen value of chain 1 S158E is strictly below -0.2.
0.0
